# System: Daudi cells
# assay.explanation: Tumor cell proliferation IC50 (CCK-8), Daudi;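 note: cell viability read with CCK-8 reagent after compound exposure of Daudi cells, IC50 derived from plotted growth inhibition curves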
# cond: Homo sapiens, read-out: IC50 for inhibiting the proliferation of tumor cells, Daudi
pIC50: −log10 of the molar value.
Kindly state pIC50 for each of the entries shown.

Record summary for O=C1CCC(N2Cc3cc(C=C4CN(C(=O)c5ccccc5-c5ccc(Cl)cc5)C4)ccc3C2=O)C(=O)N1 (stereo not drawn) [GT-05482] : reported pIC50 = 7.30 to 8.00

Record summary for CC1(C)CCC(CN2CCN(Cc3ccc4c(c3)CN(C3CCC(=O)NC3=O)C4=O)CC2)=C(c2ccc(Cl)cc2)C1 (stereo not drawn) [GT-02785] : reported pIC50 = 6.80

Record summary for O=C1CCC(N2Cc3cc(CN4CCN(Cc5ccc(-c6ccco6)cc5)CC4)ccc3C2=O)C(=O)N1 (stereo not drawn) [GT-05693] : reported pIC50 = 6.00 to 6.30
